assay: Pharmacokinetic profile in APBD modeling mice, IV 250 mg/kg; details: mouse, in vivo; APBD modeling mice, IV 250 mg/kg
RESULT_TYPE: Cmax (ng/mL)
Value expressed in ng/mL; do not type the unit.

// field: Cmax; key: COCCN(Cc1sccc1C)C(=O)c1cc(C)[nH]c(=O)c1 ; value = 4700

* * *

test: Pharmacokinetics, 3-day oral dose escalation study in APBD patients; assay type: in vivo, human; settings: human, plasma, oral, 340 mg, patient 2; per os in formulation LDS-C; 170, 255, 340 mg on days 1, 2, 3
RESULT_TYPE: Cmax

// field: Cmax; key: COCCN(Cc1sccc1C)C(=O)c1cc(C)[nH]c(=O)c1 [Compound GHF-201] ; value = 0.883 µg/mL

* * *

assay: Pharmacokinetic profile in APBD modeling mice, IV 250 mg/kg; conditions: in vivo, intravenous, 250 mg/kg, FDA human equivalent dose calculation
RESULT_TYPE: Human-equivalent Cmax (mouse Cmax divided by 12) (ng/mL)
Value expressed in ng/mL; do not type the unit.

// field: Human-equivalent Cmax (mouse Cmax divided by 12); key: COCCN(Cc1sccc1C)C(=O)c1cc(C)[nH]c(=O)c1 ; value = 392
